# test: Inhibition of trypsin-like activity of rabbit reticulocyte 20S proteasome
# Design: species or system Oryctolagus cuniculus
Residues, ends and D or L forms follow the SMILES beside them. *: point of attachment. NHPh = c1ccc(N*)cc1; Bn = c1ccc(C*)cc1
quantity kind: Ki

I'd like to know its Ki. The compound in question is NCCCC[C@H](NC(=O)[C@@H](N)Cc1ccc(OCc2ccccc2)cc1)C(=O)N[C@@H](Cc1c[nH]c2ccccc12)C(=O)Nc1ccccc1 (H-Tyr(Bn)-Lys-Trp-NHPh)
1.12 µM

----------
Below: a set of entries, each annotated with reported inhibition.
# Species: Oryctolagus cuniculus
# test: Inhibition of trypsin-like activity of rabbit reticulocyte 20S proteasome at 100 uM

Would you please look over these solved cases?
>  <compound smiles>
COC(=O)[C@H](Cc1c[nH]c2c(Br)cccc12)NC(=O)[C@H](C)NC(=O)[C@H](Cc1ccc(OCc2ccccc2)c(I)c1)NC(=O)OC(C)(C)C

>  <inhibition>
< 20%

$$$$
>  <compound smiles>
CCOC(=O)[C@H](Cc1c[nH]c2c(Br)cccc12)NC(=O)[C@H](CC(C)C)NC(=O)[C@H](Cc1ccc(OCc2ccccc2)c(I)c1)NC(=O)OC(C)(C)C

>  <inhibition>
< 20%

$$$$

With those in mind, consider the next molecule.
I'd like to know its inhibition. The molecule in question is COC(=O)[C@H](Cc1c[nH]c2c(Br)cccc12)NC(=O)[C@H](CC(N)=O)NC(=O)[C@H](Cc1ccc(OCc2ccccc2)c(I)c1)NC(=O)OC(C)(C)C
< 20%

Ref: ChEMBL document CHEMBL1143703
